biological target: CYP2C19 (Homo sapiens); assay: Cytochrome P450 enzyme assay; type: in vitro ADME; conditions: human
Sequence (P33261 whole entry): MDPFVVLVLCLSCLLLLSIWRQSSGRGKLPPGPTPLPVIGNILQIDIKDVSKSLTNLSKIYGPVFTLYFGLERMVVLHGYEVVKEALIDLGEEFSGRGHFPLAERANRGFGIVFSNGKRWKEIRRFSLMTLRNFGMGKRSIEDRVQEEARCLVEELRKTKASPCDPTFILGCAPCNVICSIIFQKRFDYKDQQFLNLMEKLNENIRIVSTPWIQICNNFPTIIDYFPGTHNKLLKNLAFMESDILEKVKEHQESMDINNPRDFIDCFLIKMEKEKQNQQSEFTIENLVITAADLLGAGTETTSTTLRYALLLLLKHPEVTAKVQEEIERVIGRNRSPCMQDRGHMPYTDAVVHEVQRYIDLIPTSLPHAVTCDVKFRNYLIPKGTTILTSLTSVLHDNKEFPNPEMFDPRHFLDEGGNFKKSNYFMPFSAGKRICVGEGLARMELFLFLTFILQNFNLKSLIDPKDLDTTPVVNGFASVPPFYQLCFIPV

{"compound": "CC(C)Cn1cnc2c(N)nc3ccccc3c21 [IMQ, imiquimod, reference compound]", "study.target": "CYP2C19 (Homo sapiens)", "inhibition at 45 min, 10 µM / %": 10}

* * *

molecular target: CYP3A4 (Homo sapiens); assay: Cytochrome P450 enzyme assay; type: in vitro ADME; settings: human
Sequence (P08684 whole entry): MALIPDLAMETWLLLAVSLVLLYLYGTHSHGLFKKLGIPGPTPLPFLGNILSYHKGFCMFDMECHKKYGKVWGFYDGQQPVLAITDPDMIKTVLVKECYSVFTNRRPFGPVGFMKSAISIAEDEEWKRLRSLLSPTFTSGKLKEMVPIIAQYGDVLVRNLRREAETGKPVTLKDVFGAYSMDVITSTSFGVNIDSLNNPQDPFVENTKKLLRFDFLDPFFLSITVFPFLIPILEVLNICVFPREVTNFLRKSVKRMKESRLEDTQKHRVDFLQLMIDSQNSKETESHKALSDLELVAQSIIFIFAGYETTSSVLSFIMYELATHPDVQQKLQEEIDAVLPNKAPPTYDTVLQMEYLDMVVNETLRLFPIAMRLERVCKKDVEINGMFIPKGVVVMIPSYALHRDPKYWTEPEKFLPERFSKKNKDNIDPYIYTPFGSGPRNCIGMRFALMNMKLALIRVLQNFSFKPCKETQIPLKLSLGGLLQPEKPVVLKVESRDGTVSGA
measurement.type: inhibition at 30 min, 10 µM (%)

{"compound": "CC(C)Cn1cnc2c(N)nc3ccccc3c21 [IMQ, imiquimod, reference compound]", "measurement.type": "inhibition at 30 min, 10 µM", "observed": 1}

Sourced from paper PMC3959874
